# Test system: AMPK (hum)
# Protocol summary: kinase profiling panel
# Assay type: biochemical
# Stated conditions: 1 µM

Compound	Quantity unit	% Activity Remaining
Cc1ccc(F)c(S(=O)(=O)Nc2ccc(-c3nc(OC[C@H]4CNCCO4)c4cn[nH]c4n3)cc2)c1 [308-R, reference compound]	%	78
COc1ccc(Cl)c(S(=O)(=O)Nc2ccc(-c3nc(OC[C@H]4CNCCO4)c4c(C)n[nH]c4n3)cc2)c1 [290-R, reference compound]	%	15
Cc1ccc(F)c(S(=O)(=O)Nc2ccc(-c3nc(OC[C@H]4CN(CCCCCCOCCOCCOCC(=O)N[C@H](C(=O)N5C[C@H](O)C[C@H]5C(=O)NCc5ccc(-c6scnc6C)cc5)C(C)(C)C)CCO4)c4cn[nH]c4n3)cc2)c1 [SGK3-PROTAC1]	%	105
Cc1ccc(F)c(S(=O)(=O)Nc2ccc(-c3nc(OC[C@H]4CN(CCCCCCOCCOCCOCC(=O)N[C@H](C(=O)N5C[C@@H](O)C[C@H]5C(=O)NCc5ccc(-c6scnc6C)cc5)C(C)(C)C)CCO4)c4cn[nH]c4n3)cc2)c1 [cisSGK3-PROTAC1]	%	108

###

# Experimental system: S6K1 (Homo sapiens, UniProt P23443, T412E)
# Sequence (P23443 1-421 T412E limits assumed): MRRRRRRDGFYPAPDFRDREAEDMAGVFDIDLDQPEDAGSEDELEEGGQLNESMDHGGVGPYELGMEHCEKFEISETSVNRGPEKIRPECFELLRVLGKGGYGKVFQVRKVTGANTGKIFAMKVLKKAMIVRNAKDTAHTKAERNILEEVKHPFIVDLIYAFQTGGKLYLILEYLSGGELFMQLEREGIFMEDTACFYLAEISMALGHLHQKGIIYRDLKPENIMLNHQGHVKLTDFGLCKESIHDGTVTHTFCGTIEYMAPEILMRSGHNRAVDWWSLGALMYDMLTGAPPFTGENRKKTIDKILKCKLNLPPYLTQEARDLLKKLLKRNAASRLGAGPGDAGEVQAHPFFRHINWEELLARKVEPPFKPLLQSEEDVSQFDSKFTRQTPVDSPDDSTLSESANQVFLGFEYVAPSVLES
# Protocol summary: IC50 determination, biochemical kinase assay
# Stated conditions: not in the presence of VHL
pIC50: −log10 of the molar value.

Molecule	Experimental system	Result qualifier	pIC50
Cc1ccc(F)c(S(=O)(=O)Nc2ccc(-c3nc(OC[C@H]4CN(CCCCCCOCCOCCOCC(=O)N[C@H](C(=O)N5C[C@@H](O)C[C@H]5C(=O)NCc5ccc(-c6scnc6C)cc5)C(C)(C)C)CCO4)c4cn[nH]c4n3)cc2)c1 [cisSGK3-PROTAC1]	S6K1 (Homo sapiens, UniProt P23443, T412E)	=	5.77
Cc1ccc(F)c(S(=O)(=O)Nc2ccc(-c3nc(OC[C@H]4CN(CCCCCCOCCCCCCOCC(=O)N[C@H](C(=O)N5C[C@H](O)C[C@H]5C(=O)NCc5ccc(-c6scnc6C)cc5)C(C)(C)C)CCO4)c4cn[nH]c4n3)cc2)c1	S6K1 (Homo sapiens, UniProt P23443, T412E)	<	5.00

###

Reported pIC50 by item:
# Experimental system: S6K1 (Homo sapiens, UniProt P23443, T412E)
# Protocol summary: IC50 determination, biochemical kinase assay
# Stated conditions: not in the presence of VHL
pIC50: −log10 of the molar value.

Molecule	Experimental system	Result qualifier	pIC50
Cc1ccc(F)c(S(=O)(=O)Nc2ccc(-c3nc(OC[C@H]4CN(CCOCCOCCOCCOCCOCC(=O)N[C@H](C(=O)N5C[C@H](O)C[C@H]5C(=O)NCc5ccc(-c6scnc6C)cc5)C(C)(C)C)CCO4)c4cn[nH]c4n3)cc2)c1 [DAT7]	S6K1 (Homo sapiens, UniProt P23443, T412E)	<	5.00
COc1ccc(Cl)c(S(=O)(=O)Nc2ccc(-c3nc(OC[C@H]4CN(CCOCCOCCOCC(=O)N[C@H](C(=O)N5C[C@H](O)C[C@H]5C(=O)NCc5ccc(-c6scnc6C)cc5)C(C)(C)C)CCO4)c4c(C)n[nH]c4n3)cc2)c1 [DAT2]	S6K1 (Homo sapiens, UniProt P23443, T412E)	=	6.74
COc1ccc(Cl)c(S(=O)(=O)Nc2ccc(-c3nc(OC[C@H]4CN(CCCCCCOCCOCCOCCOCC(=O)N[C@H](C(=O)N5C[C@H](O)C[C@H]5C(=O)NCc5ccc(-c6scnc6C)cc5)C(C)(C)C)CCO4)c4c(C)n[nH]c4n3)cc2)c1 [DAT11]	S6K1 (Homo sapiens, UniProt P23443, T412E)	=	5.74
Cc1ccc(F)c(S(=O)(=O)Nc2ccc(-c3nc(OC[C@H]4CN(CCCCCCOCCOCCOCCOCC(=O)N[C@H](C(=O)N5C[C@H](O)C[C@H]5C(=O)NCc5ccc(-c6scnc6C)cc5)C(C)(C)C)CCO4)c4cn[nH]c4n3)cc2)c1 [DAT9]	S6K1 (Homo sapiens, UniProt P23443, T412E)	=	5.34
